System: P-4E-BP1 (T37/46)
protocol: Cell based AlphaLISA assay, inhibition of P-4E-BP1 (T37/46) in MDA-MB-468 cells (mTORC1 substrate)
settings: Homo sapiens, 4 h, AlphaLisa, two to four hours at 37° C., read-out: pIC50 for Inhibition of mTORC1 and mTORC2 Substrate Phosphorylation P-4E-BP1-(T37/46) (converted)

{"columns": ["entrySmiles", "assayTarget", "IC50"],
 "data": [
  ["CO[C@H]1C[C@@H]2CC[C@@H](C)[C@@](O)(O2)C(=O)C(=O)N2CCCC[C@H]2C(=O)O[C@H]([C@H](C)C[C@@H]2CC[C@@H](OC(=O)NCc3cnc(N4CCN(C(=O)CCOCCOCCN5CCN(c6ncc(C(=O)N7CCc8cc(Cn9nc(-c%10ccc%11[nH]ccc%11c%10)c%10c(N)ncnc%109)ccc8C7)cn6)CC5)CC4)nc3)[C@H](OC)C2)CC(=O)[C@H](C)/C=C(\\C)[C@@H](O)[C@@H](OC)C(=O)[C@H](C)C[C@H](C)/C=C/C=C/C=C/1C", "P-4E-BP1 (T37/46)", "3.16 to 31.6 nM"],
  ["CO[C@H]1C[C@@H]2CC[C@@H](C)[C@@](O)(O2)C(=O)C(=O)N2CCCC[C@H]2C(=O)O[C@H]([C@H](C)C[C@@H]2CC[C@@H](OC(=O)NCc3cnc(N4CCN(C(=O)CCOCCN5CCN(c6ncc(C(=O)N7CCc8cc(Cn9nc(-c%10ccc%11oc(N)nc%11c%10)c%10c(N)ncnc%109)ccc8C7)cn6)CC5)[C@@H](C(=O)O)C4)nc3)[C@H](OC)C2)C[C@@H](OC)[C@H](C)/C=C(\\C)[C@@H](O)[C@@H](OC)C(=O)[C@H](C)C[C@H](C)/C=C/C=C/C=C/1C", "P-4E-BP1 (T37/46)", "< 3.16 nM"]
]}

* * *

System: P-Akt (S473)
protocol: Cell based AlphaLISA assay, inhibition of P-Akt (S473) in MDA-MB-468 cells (mTORC2 substrate)
settings: Homo sapiens, 4 h, AlphaLisa, two to four hours at 37° C., read-out: pIC50 for Inhibition of mTORC1 and mTORC2 Substrate Phosphorylation p-AKT1/2/3-(S473) (converted)
// IC50 lookup, one value per entry

{"columns": ["entrySmiles", "assayTarget", "IC50"],
 "data": [
  ["CO[C@H]1C[C@@H]2CC[C@@H](C)[C@@](O)(O2)C(=O)C(=O)N2CCCC[C@H]2C(=O)O[C@H]([C@H](C)C[C@@H]2CC[C@@H](OC(=O)N3CCC(N)(C(=O)NCCOCCOCCOCCOCCOCCOCCC(=O)N4CCc5cc(Cn6nc(-c7ccc8oc(N)nc8c7)c7c(N)ncnc76)ccc5C4)CC3)[C@H](OC)C2)C[C@@H](O)[C@H](C)/C=C(\\C)[C@@H](O)[C@@H](OC)C(=O)[C@H](C)C[C@H](C)/C=C/C=C/C=C/1C", "P-Akt (S473)", "3.16 to 31.6 nM"],
  ["CO[C@H]1C[C@@H]2CC[C@@H](C)[C@@](O)(O2)C(=O)C(=O)N2CCCC[C@H]2C(=O)O[C@H]([C@H](C)C[C@@H]2CC[C@@H](OC(=O)NCCOCCOCCOCCOCCOCCOCCOCCOCCC(=O)NCCS(=O)(=O)c3ccc(C(=O)N4CCOc5ccc(-c6ccc(N)nc6)cc5C4)c(C)c3)[C@H](OC)C2)C[C@@H](OC)[C@H](C)/C=C(\\C)[C@@H](O)[C@@H](OC)C(=O)[C@H](C)C[C@H](C)/C=C/C=C/C=C/1C", "P-Akt (S473)", "3.16 to 31.6 nM"],
  ["CO[C@H]1C[C@@H]2CC[C@@H](C)[C@@](O)(O2)C(=O)C(=O)N2CCCC[C@H]2C(=O)O[C@H]([C@H](C)C[C@@H]2CC[C@@H](OC(=S)NCCOCCOCCOCCOCCOCCOCCOCCOCCC(=O)NCc3ccc(Cn4nc(-c5ccc6oc(N)nc6c5)c5c(N)ncnc54)cc3)[C@H](OC)C2)C[C@@H](O)[C@H](C)/C=C(\\C)[C@@H](O)[C@@H](OC)C(=O)[C@H](C)C[C@H](C)/C=C/C=C/C=C/1C", "P-Akt (S473)", "< 3.16 nM"]
]}

* * *

Test system: P-4E-BP1 (T37/46)
protocol: Cell based AlphaLISA assay, inhibition of P-4E-BP1 (T37/46) in MDA-MB-468 cells (mTORC1 substrate)
settings: Homo sapiens, 4 h, AlphaLisa, two to four hours at 37° C., read-out: pIC50 for Inhibition of mTORC1 and mTORC2 Substrate Phosphorylation P-4E-BP1-(T37/46) (converted)
Protocol: Cell Based AlphaLISA Assays For Determining IC50 For Inhibition of P-Akt (S473), P-4E-BP1(T37/46), and P-P70S6K (T389) in MDA-MB-468 Cells mTOR Kinase Cellular Assay To measure functional activity of mTORC1 and mTORC2 in cells the phosphorylation of 4EBPT (Thr37/46) and P70S6K (Thr389), and AKT1/2/3 (Ser473) was monitored using AlphaLisa SureFire Ultra Kits (Perkin Elmer). […] Incubations were terminated by removal of the assay buffer and addition of lysis buffer provided with the assay kit. […]
endpointName: IC50

{"columns": ["entrySmiles", "assayTarget", "endpointName", "result"],
 "data": [
  ["CO[C@H]1C[C@@H]2CC[C@@H](C)[C@@](O)(O2)C(=O)C(=O)N2CCCC[C@H]2C(=O)O[C@H]([C@H](C)C[C@@H]2CC[C@@H](OC(=O)NCc3cnc(N4CCN(C(=O)CCOCCN5CCN(c6ncc(C(=O)N7CCc8cc(Cn9nc(-c%10ccc%11oc(N)nc%11c%10)c%10c(N)ncnc%109)ccc8C7)cn6)CC5)CC4)nc3)[C@H](OC)C2)CC[C@H](C)/C=C(\\C)[C@@H](O)[C@@H](OC)C(=O)[C@H](C)C[C@H](C)/C=C/C=C/C=C/1C", "P-4E-BP1 (T37/46)", "IC50", "< 3.16 nM"],
  ["CO[C@H]1C[C@@H]2CC[C@@H](C)[C@@](O)(O2)C(=O)C(=O)N2CCCC[C@H]2C(=O)O[C@H]([C@H](C)C[C@@H]2CC[C@@H](OC(=O)NCc3cnc(N4CCN(c5ncc(C(=O)N(C)CCOCCOCCOCCOCCC(=O)N6CCc7cc(Cn8nc(-c9ccc%10oc(N)nc%10c9)c9c(N)ncnc98)ccc7C6)c(N)n5)CC4)nc3)[C@H](OC)C2)C[C@@H](OC)[C@H](C)/C=C(\\C)[C@@H](O)[C@@H](OC)C(=O)[C@H](C)C[C@H](C)/C=C/C=C/C=C/1C", "P-4E-BP1 (T37/46)", "IC50", "< 3.16 nM"]
]}

* * *

Tested on: P-Akt (S473)
protocol: Cell based AlphaLISA assay, inhibition of P-Akt (S473) in MDA-MB-468 cells (mTORC2 substrate)
settings: Homo sapiens, 4 h, AlphaLisa, two to four hours at 37° C., read-out: pIC50 for Inhibition of mTORC1 and mTORC2 Substrate Phosphorylation p-AKT1/2/3-(S473) (converted)

{"columns": ["entrySmiles", "IC50"],
 "data": [
  ["CO[C@H]1C[C@@H]2CC[C@@H](C)[C@@](O)(O2)C(=O)C(=O)N2CCCC[C@H]2C(=O)O[C@H]([C@H](C)C[C@@H]2CC[C@@H](OC(=O)N3CCc4nc(N5CCN(c6ncc(C(=O)NCCOCCOCCOCCOCCC(=O)N7CCc8cc(Cn9nc(-c%10cnc%11[nH]ccc%11c%10)c%10c(N)ncnc%109)ccc8C7)c(N)n6)CC5)ncc4C3)[C@H](OC)C2)CC(=O)[C@H](C)/C=C(\\C)[C@@H](O)[C@@H](OC)C(=O)[C@H](C)C[C@H](C)/C=C/C=C/C=C/1C", "3.16 to 31.6 nM"]
]}

* * *

Tested on: P-Akt (S473)
protocol: Cell based AlphaLISA assay, inhibition of P-Akt (S473) in MDA-MB-468 cells (mTORC2 substrate)
settings: Homo sapiens, 4 h, AlphaLisa, two to four hours at 37° C., read-out: pIC50 for Inhibition of mTORC1 and mTORC2 Substrate Phosphorylation p-AKT1/2/3-(S473) (converted)

{"columns": ["molecule", "IC50"],
 "data": [
  ["CO[C@H]1C[C@@H]2CC[C@@H](C)[C@@](O)(O2)C(=O)C(=O)N2CCCC[C@H]2C(=O)O[C@H]([C@H](C)C[C@@H]2CC[C@@H](OC(=O)NCc3cnc(N4CCN(C(=O)CCOCCN5CCN(c6ncc(C(=O)N7CCc8cc(Cn9nc(-c%10ccc%11oc(N)nc%11c%10)c%10c(N)ncnc%109)ccc8C7)cn6)CC5)CC4)nc3)[C@H](OC)C2)CC[C@H](C)/C=C(\\C)[C@@H](O)[C@@H](OC)C(=O)[C@H](C)C[C@H](C)/C=C/C=C/C=C/1C [Example 118]", "3.16 to 31.6 nM"],
  ["CO[C@H]1C[C@@H]2CC[C@@H](C)[C@@](O)(O2)C(=O)C(=O)N2CCCC[C@H]2C(=O)O[C@H]([C@H](C)C[C@@H]2CC[C@@H](OC(=S)NCc3cnc(N4CCN(C(=O)CCOCCN5CCN(c6ncc(C(=O)N7CCc8cc(Cn9nc(-c%10ccc%11oc(N)nc%11c%10)c%10c(N)ncnc%109)ccc8C7)cn6)CC5)CC4)nc3)[C@H](OC)C2)CC(=O)[C@H](C)/C=C(\\C)[C@@H](O)[C@@H](OC)C(=O)[C@H](C)C[C@H](C)/C=C/C=C/C=C/1C [Example 119]", "3.16 to 31.6 nM"],
  ["CO[C@H]1C[C@@H]2CC[C@@H](C)[C@@](O)(O2)C(=O)C(=O)N2CCCC[C@H]2C(=O)O[C@H]([C@H](C)C[C@@H]2CC[C@@H](OC(=O)NCCOCCOCCOCCOCCOCCOCCOCCOCC(=O)N3CCc4cc(Cn5nc(-c6ccc7oc(N)nc7c6)c6c(N)ncnc65)ccc4C3)[C@H](OC)C2)C[C@@H](O)[C@H](C)/C=C(\\C)[C@@H](O)[C@@H](OC)C(=O)[C@H](C)C[C@H](C)/C=C/C=C/C=C/1C [Example 28]", "> 1000 nM"]
]}
